Measured remaining at 1 h, 1 µM by item
# assay.remarks: Metabolic stability in rat hepatocytes assessed as parent compound remaining incubated for 1 hr by LC-MS/MS
# Assay type: ADME, cell-based, Hepatocyte
# condition.parameters: read-out: Stability
Non-standard residues stand in square brackets, D forms with d. Residues, ends and D or L forms follow the SMILES beside them. *: point of attachment. Benzoyl(4-OPh(4-CONH2)) = NC(=O)c1ccc(Oc2ccc(C(=O)*)cc2)cc1; Benzenesulfonyl(4-OPh) = O=S(=O)(c1ccc(Oc2ccccc2)cc1)*; NMeI = CC[C@H](C)[C@H](NC)C(=O)O; NMeE = CN[C@@H](CCC(=O)O)C(=O)O; β3hP = O=C(O)C[C@@H]1CCCN1; Dab = NCC[C@H](N)C(=O)O; Ava = NCCCCC(=O)O; GABA = NCCCC(=O)O
Please state the figure in %; there is no need to write the unit.

CC(C)C[C@H](NC(=O)[C@H](CCN)NC(=O)[C@H](CC(=O)O)NC(=O)[C@H](CCC(=O)O)NC(=O)CCCCNC(=O)c1ccc(Oc2ccc(C(N)=O)cc2)cc1)C(=O)N(C)[C@@H](CCC(=O)O)C(=O)N1CCC[C@H]1CC(N)=O ({Benzoyl(4-OPh(4-CONH2))-Ava}-ED[Dab]L[NMeE][β3hP]-NH2); 98.2
CC(C)C[C@H](NC(=O)[C@H](CCN)NC(=O)[C@H](CC(=O)O)NC(=O)[C@H](CC(N)=O)NC(=O)CCCCNC(=O)c1ccc(Oc2ccc(C(N)=O)cc2)cc1)C(=O)N(C)[C@@H](CCC(=O)O)C(=O)N1CCC[C@H]1CC(N)=O ({Benzoyl(4-OPh(4-CONH2))-Ava}-ND[Dab]L[NMeE][β3hP]-NH2); 101
CC(C)C[C@H](NC(=O)[C@H](CCN)NC(=O)[C@H](CC(=O)O)NC(=O)[C@H](CC(N)=O)NC(=O)CCCNS(=O)(=O)c1ccc(Oc2ccccc2)cc1)C(=O)N(C)[C@@H](CCC(=O)O)C(=O)N1CCC[C@H]1CC(N)=O ({Benzenesulfonyl(4-OPh)-GABA}-ND[Dab]L[NMeE][β3hP]-NH2); 91.7

For the next question, use this compound.
Look up remaining at 1 h, 1 µM for this compound: CC[C@H](C)[C@@H](C(=O)N1CCC[C@H]1CC(N)=O)N(C)C(=O)[C@H](CC(C)C)NC(=O)[C@H](C)NC(=O)[C@H](CC(=O)O)NC(=O)[C@H](CC(N)=O)NC(=O)CCCNS(=O)(=O)c1ccc(Oc2ccccc2)cc1 ({Benzenesulfonyl(4-OPh)-GABA}-NDAL[NMeI][β3hP]-NH2)
68.4
